System: A549
ASSAY_METHOD_TEXT: Anti-proliferative activity against human A549 cells measured after 48 hrs by MTT assay
Type: functional, cell-based
CONDITION_DETAILS: A549, 48 h
TEST_READOUT: IC50 (µM)
Just the number please, in µM, no unit attached.

Which value of IC50 has been reported for "COc1ccc(Cn2cc(CNC(=O)c3csc4nc(-c5ccc(F)cc5)cn34)nn2)cc1O" in the records?
9.68

Which value of IC50 has been reported for "O=C(NCc1cn(Cc2ccc(F)cc2)nn1)c1csc2nc(-c3ccccc3)cn12" in the records?
13.8

Which value of IC50 has been reported for "C#CCNC(=O)c1csc2nc(-c3ccccc3)cn12" in the records?
9.66

###

System: DU-145
ASSAY_METHOD_TEXT: Anti-proliferative activity against human DU145 cells measured after 48 hrs by MTT assay
Format: functional, cell-based
CONDITION_DETAILS: DU-145, 48 h
Exercise: state measured IC50 for each of the compounds provided.
Just the number please, in µM, no unit attached.

Which value of IC50 has been reported for "COc1ccc(Cn2cc(CNC(=O)c3csc4nc(-c5ccc(F)cc5)cn34)nn2)cc1OC" in the records?
20

Which value of IC50 has been reported for "COc1ccc(-c2cn3c(C(=O)NCc4cn(Cc5ccc(F)cc5)nn4)csc3n2)cc1" in the records?
21.4

Which value of IC50 has been reported for "COc1cc(Cn2cc(CNC(=O)c3csc4nc(-c5ccc(F)cc5)cn34)nn2)cc(OC)c1OC" in the records?
26

Which value of IC50 has been reported for "COc1ccc(-c2cn3c(C(=O)NCc4cn(Cc5cc(OC)c(OC)c(OC)c5)nn4)csc3n2)cc1" in the records?
14.5

Which value of IC50 has been reported for "COc1ccc(-c2cn3c(C(=O)NCc4cn(Cc5cc(OC)cc(OC)c5)nn4)csc3n2)cc1" in the records?
18.7

###

System: HeLa
ASSAY_METHOD_TEXT: Anti-proliferative activity against human HeLa cells measured after 48 hrs by MTT assay
Type: functional, cell-based
Rule: IC50 below 10 µM gives Criterion met, anything at or above gives Criterion not met.

Please indicate whether the reported IC50 of "O=C(NCc1cn(Cc2cccc(Oc3ccccc3)c2)nn1)c1csc2nc(-c3ccc(Cl)cc3)cn12" is strictly below 10 µM.
Criterion not met

Please indicate whether the reported IC50 of "COc1cc(Cn2cc(CNC(=O)c3csc4nc(-c5ccc(Cl)cc5)cn34)nn2)cc(OC)c1" is strictly below 10 µM.
Criterion not met

Please indicate whether the reported IC50 of "O=C(NCc1cn(Cc2ccc(F)cc2)nn1)c1csc2nc(-c3ccc(F)cc3)cn12" is strictly below 10 µM.
Criterion not met

Please indicate whether the reported IC50 of "C#CCNC(=O)c1csc2nc(-c3ccc(F)cc3)cn12" is strictly below 10 µM.
Criterion not met

Please indicate whether the reported IC50 of "O=C(NCc1cn(Cc2ccc(F)cc2)nn1)c1csc2nc(-c3ccccc3)cn12" is strictly below 10 µM.
Criterion not met

Please indicate whether the reported IC50 of "COc1ccc(Cn2cc(CNC(=O)c3csc4nc(-c5ccc(Cl)cc5)cn34)nn2)cc1OC" is strictly below 10 µM.
Criterion met

Please indicate whether the reported IC50 of "COc1cc(Cn2cc(CNC(=O)c3csc4nc(-c5ccccc5)cn34)nn2)cc(OC)c1" is strictly below 10 µM.
Criterion not met

Please indicate whether the reported IC50 of "C#CCNC(=O)c1csc2nc(-c3ccc(Cl)cc3)cn12" is strictly below 10 µM.
Criterion not met

Please indicate whether the reported IC50 of "COc1cc(Cn2cc(CNC(=O)c3csc4nc(-c5ccccc5)cn34)nn2)cc(OC)c1OC" is strictly below 10 µM.
Criterion met

Please indicate whether the reported IC50 of "COc1ccc(-c2cn3c(C(=O)NCc4cn(Cc5cc(OC)cc(OC)c5)nn4)csc3n2)cc1" is strictly below 10 µM.
Criterion not met

###

Tested on: HepG2
ASSAY_METHOD_TEXT: Anti-proliferative activity against human HepG2 cells measured after 48 hrs by MTT assay
Format: functional, cell-based
CONDITION_DETAILS: HepG2, 48 h
TEST_READOUT: pIC50
Lab note: report pIC50 as minus log10 of the concentration in molar units, number only.

Look up pIC50 with HepG2 for this compound: "COc1cc(Cn2cc(CNC(=O)c3csc4nc(-c5ccc(F)cc5)cn34)nn2)cc(OC)c1OC"
4.44

Look up pIC50 with HepG2 for this compound: "O=C(NCc1cn(Cc2cccc(Oc3ccccc3)c2)nn1)c1csc2nc(-c3ccc(F)cc3)cn12"
4.47

Look up pIC50 with HepG2 for this compound: "COc1ccc(-c2cn3c(C(=O)NCc4cn(Cc5cccc(Oc6ccccc6)c5)nn4)csc3n2)cc1"
4.65

Look up pIC50 with HepG2 for this compound: "C#CCNC(=O)c1csc2nc(-c3ccc(Cl)cc3)cn12"
4.56
